Source of measurements: patent US10213415B2

# Target Or System: human mu opioid receptor (Homo sapiens, UniProt P35372)
# Construct: purchased Perkin Elmer RBHOMM400UA; host or cells: Chinese Hamster Ovary cells (recombinant expression)
# Sequence (P35372 whole entry): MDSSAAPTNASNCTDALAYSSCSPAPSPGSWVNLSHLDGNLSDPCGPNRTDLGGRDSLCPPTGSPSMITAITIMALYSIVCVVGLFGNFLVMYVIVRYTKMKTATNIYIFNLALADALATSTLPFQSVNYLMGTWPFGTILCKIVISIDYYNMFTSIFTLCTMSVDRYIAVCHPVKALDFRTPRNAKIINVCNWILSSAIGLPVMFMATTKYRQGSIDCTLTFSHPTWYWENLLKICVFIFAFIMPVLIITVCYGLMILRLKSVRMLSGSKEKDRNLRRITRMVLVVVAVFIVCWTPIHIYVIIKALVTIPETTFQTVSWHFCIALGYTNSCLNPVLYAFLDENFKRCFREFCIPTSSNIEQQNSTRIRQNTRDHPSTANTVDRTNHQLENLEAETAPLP
# Assay Info: Human Mu Opioid Receptor Binding Assay (CHO membranes, 3H-Damgo)
# Measurement Parameters: read-out: hKi μ
Measured Parameter: Ki
Please answer using the number first and the unit second.

Record request: Ki value, item "Cc1cc(C(N)=O)cc(C)c1C[C@H](N)C(=O)N(C(C)C)[C@@H](CO)c1nc(-c2ccccc2)c[nH]1"
5.4 nM

Record request: Ki value, item "Cc1cc(O)cc(C)c1C[C@H](N)C(=O)N(Cc1nc(-c2cccc(CO)c2)c(C)[nH]1)C(C)C"
1.6 nM

Record request: Ki value, item "COc1ccccc1-c1nc(CN(C(=O)[C@@H](N)Cc2c(C)cc(O)cc2C)C(C)C)[nH]c1C"
7 nM

Record request: Ki value, item "CC(C)N(C(=O)[C@@H](N)Cc1ccc(O)cc1)[C@H](C)c1nc(-c2ccccc2)c[nH]1"
185 nM

Record request: Ki value, item "COc1cc(Br)c(CN(C(=O)[C@@H](N)Cc2c(C)cc(C(N)=O)cc2C)[C@@H](C)c2nc(-c3ccccc3)c[nH]2)cc1OC"
12 nM

Record request: Ki value, item "Cc1cc(O)cc(C)c1C[C@H](N)C(=O)N(Cc1cccc2ccccc12)[C@@H](C)c1nc(-c2ccccc2)c[nH]1"
16 nM

Record request: Ki value, item "COC(=O)c1ccc(CN(C(=O)[C@@H](N)Cc2c(C)cc(C(N)=O)cc2C)[C@@H](C)c2nc(-c3ccccc3)c[nH]2)cc1"
2.7 nM

###

# Target Or System: delta opioid receptor (CHO-hδ cell membranes) (Homo sapiens, UniProt P41143)
# Sequence (P41143 whole entry): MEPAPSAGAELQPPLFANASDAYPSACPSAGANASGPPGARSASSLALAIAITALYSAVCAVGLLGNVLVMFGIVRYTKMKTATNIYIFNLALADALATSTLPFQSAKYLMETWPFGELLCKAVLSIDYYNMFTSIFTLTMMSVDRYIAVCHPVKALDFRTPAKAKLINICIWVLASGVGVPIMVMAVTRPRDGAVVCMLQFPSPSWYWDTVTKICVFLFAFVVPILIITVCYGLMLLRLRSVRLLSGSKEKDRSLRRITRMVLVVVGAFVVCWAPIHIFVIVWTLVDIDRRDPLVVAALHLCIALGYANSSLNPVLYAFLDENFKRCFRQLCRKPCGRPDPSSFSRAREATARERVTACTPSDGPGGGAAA
# Assay Info: Delta Opioid Receptor Functional Assay: [35S]GTPγS Binding in CHO-hδ Cell Membranes, Version 1
# Measurement Parameters: read-out: DOR GTP-binding Assay_v1 EC50
Measured Parameter: EC50 (nM)
Report the value in nM with no unit label.

Record request: EC50 value, item "Cc1cc(O)cc(C)c1C[C@H](N)C(=O)N(Cc1nc(-c2ccccc2)c[nH]1)C1CCCCC1"
3830

Record request: EC50 value, item "Cc1cc(O)cc(C)c1C[C@H](N)C(=O)N(C)[C@H](C)c1nc(-c2ccccc2)c[nH]1"
37

Record request: EC50 value, item "Cc1cc(O)cc(C)c1C[C@H](N)C(=O)N(Cc1nc(-c2ccc(Cl)cc2)c(C)[nH]1)C(C)C"
51

Record request: EC50 value, item "Cc1cc(O)cc(C)c1C[C@H](N)C(=O)N(Cc1nc(-c2ccsc2)c(C)[nH]1)C(C)C"
27

Record request: EC50 value, item "Cc1cc(O)cc(C)c1C[C@H](N)C(=O)N(Cc1nc(-c2cc(C(F)(F)F)cc(C(F)(F)F)c2)c(C)[nH]1)C(C)C"
2500

Record request: EC50 value, item "Cc1cc(O)cc(C)c1C[C@H](N)C(=O)N(Cc1nc(-c2cccc(CO)c2)c(C)[nH]1)C(C)C"
16

Record request: EC50 value, item "Cc1cc(O)cc(C)c1C[C@H](N)C(=O)N(Cc1nc(-c2ccccc2C(F)(F)F)c(C)[nH]1)C(C)C"
350

Record request: EC50 value, item "C[C@H](c1nc(-c2ccccc2)c[nH]1)N(C)C(=O)[C@@H](N)Cc1ccc(C(N)=O)cc1"
515

Record request: EC50 value, item "Cc1cc(O)cc(C)c1C[C@H](N)C(=O)N(Cc1nc(-c2ccccc2F)c(C)[nH]1)C(C)C"
37

Record request: EC50 value, item "CCN(C(=O)[C@@H](N)Cc1c(C)cc(O)cc1C)[C@H](c1nc(-c2ccccc2)c[nH]1)C(C)C"
115
